Structures can show the parent of a compound that is named as a salt.
PARAMETER MEASURED: melting point

N[C@@H](Cc1cc(Cl)c(OCc2cccc3nc(-c4ccccc4)[nH]c23)c(Cl)c1)C(=O)O :: 183 to 187 °C (dec.)
N[C@@H](Cc1cccc(-c2cccc(-c3ccccc3)c2)c1)C(=O)O :: 199 to 201 °C (dec.)
COC(=O)c1c(-c2ccccc2)oc2c(COc3c(Cl)cc(C[C@H](N)C(=O)O)cc3Cl)cccc2c1=O (as salt: HCl) :: 222.5 to 224 °C (dec.)
N[C@@H](Cc1cccc(Oc2ccc(Oc3ccc(O)cc3)cc2)c1)C(=O)O :: 234 to 237 °C (dec.)
N[C@@H](Cc1cc(I)c(OCCCBr)c(I)c1)C(=O)O :: 213 to 215 °C (dec.)

Per the records, this compound ( CN(CCO)c1ncc(-c2nc3cccc(COc4c(Cl)cc(C[C@H](N)C(=O)O)cc4Cl)c3o2)cn1 ) has melting point equal to 212 to 215 °C (dec.)

Item: N[C@@H](Cc1cccc(Oc2ccc3[nH]ccc3c2)c1)C(=O)O | melting point: 205 to 210 °C (dec.)

# melting point (compound: NC(Cc1cc(Cl)c(OCc2cccc3c2OC(c2ccccc2)CN3)c(Cl)c1)C(=O)O (centres unmarked) ) is 199 to 204 °C (dec.)

The reported measurements were obtained from patent US7345068B2.
